Could you please report measured inhibition for the items listed next?
experiment: endothelial E-selectin expression blockers – imaging, HUVEC, immunofluorescence, MLSMR starter and 10KST1 sets, primary screen (AID 487); conditions: HUVEC TNFalpha-induced E-selectin immunofluorescence imaging, at 2 µM; stronger effect = higher value;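 further: signal is fraction of cell area covered by stained E-selectin grains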
Write the number in % without appending the unit.

GET /values?readout=inhibition&item= COc1ccc(-c2cc(C(F)(F)F)n3nc(C(=O)N4CCOCC4)nc3n2)cc1
41.9

Ok, now COCC(=O)N(C)c1nnc(-c2ccccn2)s1
-12.1

Ok, now CSc1nc(C)cc(Oc2ccc(=O)n(C)n2)n1
-30.2

Ok, now CCN1C(=O)C(C(=O)Nc2ccc(OC)cc2)C2CC1(C)Oc1ccccc12 (stereo unspecified)
-4.8

Ok, now Cc1c(C(=O)OCCOC(C)C)[nH]c2c1C(=O)CC(c1ccco1)C2 (stereo unspecified)
-59.6

Ok, now Cc1ccc(S(=O)(=O)N2CCOCC2)cc1C(=O)Nc1nc(-c2cccnc2)cs1
-22.3

Ok, now CN(C(=O)c1ccccn1)c1nnc(-c2cccnc2)s1
-52.7

Ok, now CCN(CC)C(=O)CSc1nnc([C@@H](N)Cc2ccccc2)o1
-0.8

Ok, now O=C(C(c1ccccc1)c1ccccc1)N1CCN(Cc2ccccn2)CC1
-11.4

Ok, now COc1ccc2nc(N3CCC(C)CC3)c(C#N)cc2c1
-59.3

Ok, now c1ccc2c(c1)Cc1cc(CN3CCOCC3)ccc1-2
-77.5

----------
assay: reduction of polyQ htt aggregates in cells – imaging, exon1htt(103Q)mCFP cells, high-content imaging, primary screen (AID 483); settings: exon1htt(103Q)mCFP cell line, aggregate imaging, at 2 µM; measured here: cell count, toxicity;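 further: compound exposure lasted 3 days before fixation; percent of the per-plate median nuclei count of sample wells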
Could you please report measured nuclei count for the items listed next?
Write the number in % without appending the unit.

GET /values?readout=nuclei count&item= CCSc1nnc(NC(=O)c2ccccn2)s1
85.6

Ok, now COc1cc(C(=O)NCCc2ccc3c(c2)OCCO3)ccc1OCC(=O)N1CCOCC1
87.3

Ok, now CN(C)c1ccc(NC(=O)Cn2cc3c(n2)CCCC3)cc1
101

Ok, now O=C(Nc1nc2c(s1)CCCC2)C1COc2ccccc2O1 (stereo unspecified)
110

Ok, now O=C(NCCN1C(=O)C2C3C=CC(C3)C2C1=O)Nc1ccccn1 (stereo unspecified)
72.4

Ok, now COc1ccccc1NC(=O)CSc1nnc(Cc2cccn2C)n1-c1ccc(F)cc1
86.3

Ok, now C/C=C/Cn1c(SCCCc2ccccc2)nc2c1c(=O)[nH]c(=O)n2C
101

Ok, now COC(=O)c1cc(OC)c(OC)cc1NC(=O)CCC1CCCC1
104

Ok, now CCCNC(=O)c1ccccc1C(=O)NCCC
94.4

Ok, now C=CCN1C(=O)CS/C1=N/c1nccs1
107

Ok, now O=C(CSc1ncnc2c1cnn2-c1ccccc1)Nc1ccccc1
106

Ok, now Cc1ccc(-n2c3c(cc(C(=O)NCCCN4CCOCC4)c2=O)C(=O)CC(C)(C)C3)cc1
57

Ok, now Cn1c(SCC(=O)c2cc3ccccc3o2)nnc1-c1ccccc1
66

Ok, now O=C(NCc1cccnc1)C1c2ccccc2C(=O)N1Cc1ccco1 (stereo unspecified)
115

Ok, now COc1ccc(C2=NO[C@@H]3C(=O)N(c4cccc(C)c4C)C(=O)[C@H]23)cc1OC
91.7

Ok, now COc1cccc(OCC(=O)Nc2ccccc2C(N)=O)c1
104

Ok, now CC1CCN(C(=O)CSc2nc3ccccc3[nH]2)CC1
110

Ok, now Cc1ccc(Cn2c(=N)c(C(=O)NCc3ccco3)cc3c(=O)n4ccccc4nc32)cc1
95.7

Ok, now CCCn1nc(NC(=O)c2cccs2)c2cc3cc(OC)ccc3nc21
104

Ok, now CCC(=O)N(CCCN(C)C)c1nc(-c2cc(OC)ccc2OC)cs1
106

Ok, now Cc1ccc2[nH]c(=O)c(CN(CCCN3CCOCC3)C(=O)Nc3cccc(Cl)c3)cc2c1
89

Ok, now Cc1ccc(NC(=O)C2CCCN(S(=O)(=O)c3cnc[nH]3)C2)cc1C (stereo unspecified)
106

Ok, now CSCCC(N=CC1=C(O)CC(C)(C)CC1=O)C(=O)O (stereo unspecified)
104

Ok, now Cc1cc(Nc2ccccc2N2CCOCC2)n2ncnc2n1
89

Ok, now CCCC(C)c1nnc(NC(=O)C2CCCO2)s1 (stereo unspecified)
97.6

Ok, now O=C(CSc1nnc(Cc2cccs2)n1Cc1ccco1)Nc1cccc(Cl)c1
108

Ok, now CCOc1ccccc1NC(=O)CSc1nnc2c(CC)c(C)nc(N)n12
99.1

Ok, now COC(=O)c1ccc(NC(=O)CN2CCN(c3ccc(Cl)cc3)CC2)cc1
101

Ok, now COC(=O)[C@H](C)NC(=O)NCc1ccc(F)cc1
100

Ok, now O=C1CCn2nc(-c3ccc(Cl)cc3)cc2N1
1.2

Ok, now COc1ccc(CCn2c(-c3ccco3)nc3nc4ccccc4nc32)cc1
101

Ok, now Cc1nn(Cc2ccc(C(=O)NC3CCCCC3)o2)c(C)c1Br
72.2

Ok, now O=C(CSCCSCC(=O)c1ccco1)c1ccco1
84.7

Ok, now COC(=O)c1cnc2c(C(F)(F)F)cccc2c1OC
61.8

Ok, now O=C(NC1CCCC1)C(c1cccs1)N(C(=O)c1ccno1)c1ccccc1 (stereo unspecified)
101

Ok, now COc1ccc2nc(SCC(=O)NC(C)C)[nH]c2c1
104

Ok, now CCc1nnc(NC(=O)c2cc3c(s2)CCCCC3)s1
131

Ok, now CCOc1ccc(-c2nc(N)ncc2-c2ccccc2)c(O)c1
114

Ok, now Cc1ccccc1Cn1ccc(NC(=O)c2onc(C)c2Cl)n1
118

Ok, now COc1ccc2[nH]c(=O)c(CN(Cc3cccs3)S(=O)(=O)c3cccc4nsnc34)cc2c1
110

Ok, now O=C(CCN1C(=O)C2C3C=CC(C3)C2C1=O)Nc1c(F)cc(F)cc1Br (stereo unspecified)
95.3

Ok, now COc1ccc(CCNC(=O)CSCc2n[nH]c(=O)[nH]2)cc1OC
99.5

Ok, now Cc1cccn2c(=O)c3cc(C(=O)NC4CCCC4)c(=N)n(C4CCCC4)c3nc12
107

Ok, now O=C(O)CN1C(=O)CNC1=O
60.7

Ok, now CC(=O)Nc1c(-c2ccc(F)cc2)nc2ccccn12
104

Ok, now COC(=O)c1ccccc1NC(=O)C1CCN(S(=O)(=O)c2cc(C)ccc2OC)CC1
111

----------
assay: endothelial E-selectin expression blockers – imaging, HUVEC, immunofluorescence, MLSMR starter and 10KST1 sets, primary screen (AID 487); settings: HUVEC TNFalpha-induced E-selectin immunofluorescence imaging, at 2 µM; stronger effect = higher value;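 further: signal is fraction of cell area covered by stained E-selectin grains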
Decide using inhibition: a value greater than or equal to -30% is criterion met, a smaller one is criterion not met.

Could you please find out whether CCCn1c(=O)c2ccccc2n2c(SCCOc3ccccc3F)nnc12 has inhibition that meets -30% or exceeds it?
criterion met

Ok, now Cc1cccc(-n2nc3c(c2NC(=O)CCC2CCCCC2)CS(=O)C3)c1C (stereo unspecified)
criterion met

Ok, now COC(=O)COc1cccc(NC(=O)COc2ccccc2)c1
criterion not met

Ok, now CN(c1ccccc1)S(=O)(=O)c1ccc(C(=O)OCC(=O)N2CCOCC2)cc1
criterion met

Ok, now Cc1cc(C(=O)NCCCN2CCN(C3CCCCC3)CC2)n(-c2ccccc2)n1
criterion not met

Ok, now Fc1ccc(C(c2nnnn2Cc2ccco2)N2CCN(C3CCCCC3)CC2)cc1 (stereo unspecified)
criterion not met

Ok, now COc1ccccc1N1CCN(C(=O)N2CCOCC2)CC1
criterion not met

Ok, now O=C(CN1C(=O)CC(c2ccco2)Sc2ccccc21)Nc1ccccc1F (stereo unspecified)
criterion met

Ok, now CC1CCN(Cc2nc3c(c(=O)n(C)c(=O)n3C)n2Cc2cccc3ccccc23)CC1
criterion met

Ok, now O=C(C1CCCO1)N1CCN(Cc2nc3ccccc3c(=O)[nH]2)CC1 (stereo unspecified)
criterion met

Ok, now CCn1cc(C(=O)NC2CCc3ccccc32)c(=O)c2ccc(C)nc21 (stereo unspecified)
criterion not met

----------
molecular target: Alpha-2C adrenergic receptor (Homo sapiens) (UniProt P18825); assay: compounds altering alpha2C-coupled GIRK flux – cell-based, HEK293 alpha2C/GIRK1/2, thallium flux, primary screen (AID 624); conditions: thallium flux BTC fluorescence, at 10 µM, actives lie on both sides;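 further: slope of fluorescence ratio to pre-addition baseline per second over 15 to 24 s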
Sequence (P18825 whole entry, looked up): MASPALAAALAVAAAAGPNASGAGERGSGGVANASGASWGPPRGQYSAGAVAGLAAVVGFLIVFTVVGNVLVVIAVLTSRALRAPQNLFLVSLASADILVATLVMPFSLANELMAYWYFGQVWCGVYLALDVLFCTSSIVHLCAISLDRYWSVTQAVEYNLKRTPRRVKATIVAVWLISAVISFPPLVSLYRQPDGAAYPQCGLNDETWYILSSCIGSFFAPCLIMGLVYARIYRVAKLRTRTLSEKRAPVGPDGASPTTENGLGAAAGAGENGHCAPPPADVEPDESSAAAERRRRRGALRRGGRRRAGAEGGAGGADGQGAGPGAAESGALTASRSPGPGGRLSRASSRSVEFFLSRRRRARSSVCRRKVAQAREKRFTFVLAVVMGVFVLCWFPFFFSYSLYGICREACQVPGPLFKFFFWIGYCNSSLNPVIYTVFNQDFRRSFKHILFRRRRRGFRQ
Decide using slope: a value greater than or equal to 0.006 is true (1), a smaller one is false (0).

Could you please find out whether COc1ccccc1NC(=O)c1oc2ccccc2c1NC(=O)c1cc(OC)c(OC)c(OC)c1 has slope that meets 0.006 or exceeds it?
true (1)

Ok, now COc1ccccc1C(=O)NCCNC(=O)c1ccco1
true (1)

Ok, now CCOc1ccc(NC(=O)c2ccccc2O)cc1
false (0)

Ok, now O=C(OCC(=O)c1ccccc1Br)c1ccccn1
true (1)

Ok, now O=C(Cc1ccccc1)N1CCCC(c2nc(-c3cccs3)no2)C1 (stereo unspecified)
true (1)

Ok, now O=C(CN(Cc1ccc2c(c1)OCO2)C(=O)CNS(=O)(=O)c1ccccc1)NCc1ccco1
false (0)

Ok, now COc1ccc(NC(=O)COc2ccccc2)c(OC)c1
false (0)

Ok, now Cn1c(=O)c2c(nc(NCc3ccccc3)n2CCCc2ccccc2)n(C)c1=O
false (0)

Ok, now COCCn1c(SCC(=O)Nc2ccc3c(c2)OCCO3)nc2c(c1=O)SC(C)C2 (stereo unspecified)
false (0)
